Taken from ChEMBL document CHEMBL1129998.

Target: UniProtKB P18405
Sequence (P18405 whole entry): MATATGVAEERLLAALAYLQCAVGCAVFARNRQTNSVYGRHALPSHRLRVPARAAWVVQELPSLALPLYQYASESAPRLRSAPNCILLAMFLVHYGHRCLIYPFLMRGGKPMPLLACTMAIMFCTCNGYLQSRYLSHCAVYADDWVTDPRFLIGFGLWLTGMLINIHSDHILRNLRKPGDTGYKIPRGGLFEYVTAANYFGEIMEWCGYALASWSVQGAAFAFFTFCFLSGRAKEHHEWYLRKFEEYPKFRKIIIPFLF
Experiment: Inhibitory concentration on human 5-alpha reductase 1 isozyme
RECORDED ENDPOINT: Ki

Lookup: Returns the measured Ki for the input molecule. Input: `O=C(O)c1cc2cc(OCc3ccccc3)ccc2[nH]1`
Found: > 2500 nM
